Tested on: Sorghum
Assay: post-emergent herbicidal activity, greenhouse
Format: in vivo
Conditions: Table II, 4 WAT, 5.6 kg/h
Excerpt: A good grade of top soil is placed in aluminum pans having holes in the bottom and compacted to a depth of 0.95 to 1.27 cm. from the top of the pan. […] The pans are returned to the greenhouse and watered as before and the injury to the plants as compared to the control is observed at approximately two and four weeks as indicated in the tables under WAT and the results recorded. […]
Provide the recorded post-emergent herbicidal activity index for the entries that follow.

# compound, target.or.system, post-emergent herbicidal activity index
measured = [
    ("CC(C#N)OP(=O)(O)CNCC(=O)OCc1ccccc1 (stereo not shown)", "Sorghum", "3 (75-99% control)"),
    ("CCOC(=O)CNCP(=O)(O)OCC(Cl)(Cl)Cl", "Sorghum", "3 (75-99% control)"),
    ("CCOC(=O)CNCP(=O)(OCCN1CCCC1)OCCN1CCCC1", "Sorghum", "2 (50-74% control)"),
    ("CC(C#N)OP(=O)(O)CNCC(=O)OCCCl (stereo not shown)", "Sorghum", "3 (75-99% control)"),
    ("CCOC(=O)CNCP(=O)(O)OC(C)C(=O)OC (stereo not shown)", "Sorghum", "2 (50-74% control)"),
]

# per-item lookup of post-emergent herbicidal activity index; items listed below
1. CCOC(=O)CNCP(=O)(O)OC(C)C#N (stereo not shown)
2. CCOC(=O)CNCP(=O)(OC(C)C#N)OC(C)C#N (stereo not shown)
3. CCOCCOC(=O)CNCP(=O)(O)OC(C)C#N (stereo not shown)
4. CCOC(=O)CNCP(=O)(OC(C)CC(=O)OCC)OC(C)CC(=O)OCC (stereo not shown)

1. 4 (100% control)
2. 4 (100% control)
3. 3 (75-99% control)
4. 0 (0-24% control)

For the compound CCOC(=O)CNCP(=O)(OCC1COC(C)(C)O1)OCC1COC(C)(C)O1 (stereo not shown) , what post-emergent herbicidal activity index is on record?
1 (25-49% control)
